Values from PubChem BioAssay (NCI)

tested on: SN12C renal; assay: NCI-60 one-dose screen, 48 h (100 = growth as untreated, 0 = no growth, -100 = all killed); settings: 10 µM unless noted
This is part of a sample that, as a whole, favours compounds with a hit. Of some 83,000 tested, about 20% had one in any assay. Calls of active or inactive are those of the source. The calls were made as follows: active = growth percent below 10; inactive = the rest.
Parameter: growth. Scope: all listed entries.

Inquiry: Assign growth to the following record: `Cn1c(=O)c2[nH]c(NN)nc2n(C)c1=O`
Reply text: 108% (inactive)

Inquiry: Kindly indicate its recorded growth. Item: `COc1nc(N(C)O)nc(N(C)O)n1`
Reply text: 42.5% (inactive)

Inquiry: Tell me measured growth for `CCN(CC)c1ccc(C(=O)c2ccc(N(CC)CC)cc2)cc1` please.
Reply text: 40.8% (inactive)

Inquiry: Complete the entry with growth for `COc1ccc(/C=N\NC(=O)c2cc(-c3ccc(Br)cc3)n(-c3ccc(S(N)(=O)=O)cc3)n2)cc1`
Reply text: 63% (inactive)

Inquiry: Could you please provide reported growth for N#C/C(=C/C=C/c1cccc(Cl)c1)S(=O)c1ccccc1 (centres undefined) ? Thanks!
Reply text: -55.4% (active)

Inquiry: Give the reported growth for this molecule. `CCCCNC(=O)Oc1ccc2c(=O)c3sc4c(=O)c5ccccc5c(=O)c4c3c(=O)c2c1`
Reply text: -86.3% (active)

Inquiry: Supply growth value. Item: `COc1ccc2c(c1)C(=O)/C(=C/c1cccc(OCC(=O)Nc3nc(C)c(C)s3)c1)O2`
Reply text: 3.1% (active)

Inquiry: Write down growth measured for item `COC(=O)[C@]12CC[C@@H](C)[C@H](C)[C@@H]1C1=CC[C@@H]3[C@@]4(C)C(C=O)=C[C@@](C)(COC(C)=O)C4=CC[C@@]3(C)[C@]1(C)CC2`
Reply text: 9.9% (active)

Inquiry: Give the measured growth for `COc1ccc(NC(=O)CSc2nnc(-c3cc(-c4ccc(S(N)(=O)=O)cc4)nc4ccccc34)n2-c2ccccc2)cc1`
Reply text: 81.6% (inactive)

====

tested on: MOLT-4 leukemia; assay: NCI-60 one-dose screen, 48 h; details: 10 µM unless noted
About 83,000 compounds went through this panel and 20% of them were active in at least one assay; those are over-represented in the sample as a whole. The source made the active and inactive calls. The calls were made as follows: active = growth percent below 10; inactive = the rest.
Choose the fitting class; nothing outside active, inactive is accepted.

Inquiry: How did this test come out for `O=C1/C(=C\c2c[nH]c3ccccc23)c2ccccc2N1c1c(Cl)cccc1Cl` ?
Reply text: active

Inquiry: Hi, do you know how COc1cc2c(cc1-c1c(C)noc1C)ncc1nc(C3CCC(F)(F)CC3)n(C3CCC(OC(F)F)CC3)c12 (stereo unspecified) came out in this test?
Reply text: inactive

====

test system: T-47D breast; experiment: NCI-60 one-dose screen, 48 h; settings: 10 µM unless noted
This is part of a sample that, as a whole, favours compounds with a hit. Of some 83,000 tested, about 20% had one in any assay. Calls of active or inactive are those of the source. How the source made its calls: active means growth percent below 10; inactive means the rest.
Write down the outcome that applies. Available outcomes: Y = active, N = inactive

O=[N+]([O-])c1ccc(N2c3ccncc3Sc3ccncc32)cc1 | N
CC(C)(C)CC(C)(C)Nc1c(-c2ccncc2)nc2cnccn12 | N
C[C@@H]1N=C(c2ccc3ccccc3n2)Nc2nc3ccccn3c2C1=O | N

Inquiry: Dear colleague, could you share the recorded outcome for `O=[N+]([O-])c1ccc(Sc2cccc[n+]2[O-])c2nonc12` when you have a moment?
Reply text: N

Inquiry: What classification did `Cc1cccc(NC(=O)N/C(N)=N/c2nc(C)c(C)s2)c1` end up with in this test?
Reply text: N

Inquiry: Could you kindly confirm the outcome this assay logged for `Cn1c(=O)c2[nH]c(NN)nc2n(C)c1=O` ?
Reply text: N

Inquiry: Returns: the outcome recorded for `Cc1c(C(=O)OC(=NC2CCCCC2)NC2CCCCC2)sc2c1c(=O)nc1c(C#N)n[nH]n12` in this assay.
Reply text: N

Inquiry: Call for entry `Nc1n[nH]c(-c2cc(Cl)ccc2O)c1-c1ccccc1` :
Reply text: N

Inquiry: Just curious, what result did `CCn1c(C)nc2cc(C(N)=O)ccc21` get here?
Reply text: N

Inquiry: Tell me the assay call for `Fc1ccc(CNc2c3ccccc3nc3ccccc23)cc1F` please.
Reply text: N

Inquiry: Which result was noted for this compound in the test: Nc1nc(N)c2c(n1)NC(c1ccccc1)C1CCc3ccccc3C1=N2 (stereo unspecified)
Reply text: N

Inquiry: What call does the record list for `c1ccc2cc3nc4cc5ccccc5cc4nc3cc2c1` ?
Reply text: N

Inquiry: # outcome recorded in this test, key = `COc1ccc(C(=NN=C(N)N)c2ccc(OC)cc2)cc1`
Reply text: Y

Inquiry: # lookup: test call for `O=C1C=C[C@]2(C[C@@H](c3cccc(C(F)(F)F)c3)O[C@@H](c3cccc(C(F)(F)F)c3)O2)O1`
Reply text: Y

Inquiry: For `CN1CCN(CCCOc2ccc3nc(Nc4ccc(F)c(F)c4)ccc3c2)CC1` , what call appears in the results of this test?
Reply text: N

Inquiry: For this compound, state the assay outcome: COc1ccc(C2=Nc3c(N)ncnc3NC(c3ccc4c(c3)OCO4)C2)cc1 (stereo unspecified)
Reply text: N

Inquiry: Per the assay record, what outcome was assigned to `Cc1ccc(S(=O)(=O)N/N=C\c2cc(Cl)ccc2O)cc1` ?
Reply text: N

Inquiry: Tell me the assay call for `O=C(COc1ccc(/C=C2\Oc3ccccc3C2=O)cc1)c1ccc(Cl)cc1` please.
Reply text: N

Inquiry: I would be grateful if you could indicate the recorded call for O=c1cc(C2NNC(=S)N2)c2ccc3ccccc3c2o1 (stereo unspecified) .
Reply text: N

====

system: OVCAR-3 ovarian; assay: NCI-60 one-dose screen, 48 h (100 = growth as untreated, 0 = no growth, -100 = all killed); settings: 10 µM unless noted
The panel holds about 83,000 compounds, 20% with a hit somewhere; the sample as a whole holds those more often. The source made the active and inactive calls. The calls were made as follows: active = growth percent below 10; inactive = the rest.
Measured growth values are reported for all entries that follow.

CC(CCc1ccc(Cl)c(Cl)c1)NCc1ccc(C(C)(C)C)cc1 (stereo not given) | 98.2% (inactive)
CCOc1ccccc1-c1cc(-c2cccs2)c(C#N)c(=O)[nH]1 | 99.7% (inactive)
O=C1/C(=C/c2ccc(F)cc2)C=C(c2ccccc2)N1CCc1ccccc1 | 53.1% (inactive)
CCOc1c(C#N)nnc2c(C#N)c(NC(=O)c3ccccc3)nn12 | 106% (inactive)
CN(C)CC1=NC2SC=C(c3ccccc3)C2C(=O)N1CC#N (stereo not given) | 110% (inactive)
O=C(CCc1nnc(CN(c2ccccc2)c2ccccc2)o1)c1nc2ccccc2[nH]1 | 95% (inactive)
COc1ccc(-c2nc3sccn3c2-c2cc(-c3cc(OC)c(OC)c(OC)c3)on2)cc1 | 76% (inactive)
CCc1ccccc1-n1c(N)c(C#N)c(-c2ccc(N(C)C)cc2)c(C#N)c1=O | 97% (inactive)
CCOC(CN=Cc1cc(C)c2[nH]c3ccccc3c2c1C)OCC | 104% (inactive)
COC(=O)c1c2c(c[n+]([O-])c1C)C(=O)C=CC2=O | -66.3% (active)

Inquiry: For the compound `CCc1ccccc1-n1c(-c2ccc(Cl)cc2)cc(-c2ccc(Cl)cc2)c(C#N)c1=O` , give its reported growth.
Reply text: 87.7% (inactive)

Inquiry: Quick one: give measured growth for `COc1cc(/C=C/C(=O)c2cccc(-n3cc(-c4ccccc4)[nH]c3=O)c2)ccc1O`
Reply text: 6.11% (active)

====

system: 786-0 renal; assay: NCI-60 one-dose screen, 48 h; conditions: 10 µM unless noted
Compounds without any hit were thinned out: in the full panel of roughly 83,000, 20% have a hit. Active and inactive are the calls of the source. The calls were made as follows: active = growth percent below 10; inactive = the rest.
Result category, one only: active, inactive

CC(=O)c1ccc(NCC(=O)Nc2ccccn2)cc1 | inactive
C[C@H](NC(=O)[C@@H]1CSSC[C@@H](NC(=O)c2nc3ccccc3cc2O)C(=O)NCC(=O)N1C)c1ccccc1 | active
COC(=O)[C@]12CC[C@@H](C)[C@H](C)[C@@H]1C1=CC[C@@H]3[C@@]4(C)C(C=O)=C[C@@](C)(COC(C)=O)C4=CC[C@@]3(C)[C@]1(C)CC2 | active

Inquiry: Query: recorded result category for `CC(C)(C)n1cc(-c2ccnc(NCCCNS(=O)(=O)c3ccccc3)c2)c(-c2ccccc2)n1` in this test
Reply text: inactive

====

System: LOX IMVI melanoma
Assay: NCI-60 one-dose screen, 48 h (100 = growth as untreated, 0 = no growth, -100 = all killed)
Conditions: 10 µM unless noted
Method: Growth inhibition of the LOX IMVI human tumor cell line is measured as a screen for anti-cancer activity. Cells are grown in 96 well plates and exposed to the test compound for 48 hours. Compounds are tested at a single concentration, which is 10^-5 M for most compounds. The reported endpoint is percent growth (GI% or GIPRCNT), where numbers from 0 - 100% represent growth inhibition, and numbers from -100% - 0 represent cell death. For example, a value of 40 represents 60% growth inhibition. […]
Compounds without any hit were thinned out: in the full panel of roughly 83,000, 20% have a hit.
Items are presented alongside their recorded growth.
Write the answer as a number in %, unit excluded.

COc1ccc(OC)c2c1[nH]c(=O)c1c3ncccc3cn21 | 8.59
CCc1ccccc1NC(=O)/C(C#N)=C/c1ccc(OC)cc1 | 102
N=C(N)c1ccc(-c2ccc(-c3cncc4ccccc34)s2)s1 | -78.1
COc1ccc(C2c3ccc4ccccc4c3Oc3nc(C)[nH]c(=O)c32)cc1 (stereo not given) | 88.8

Inquiry: Supply recorded growth for `O=c1c2c3c(sc2n2c(-c4cc(-c5ccccc5)nn4-c4ccccc4)nnc2n1Cc1ccccc1)CCCC3` here.
Reply text: 92.9
